Target: TNKS2 (Homo sapiens, UniProt Q9H2K2)
Construct: GST-tagged Tnks-2 (873-1166 aa, prepared in-house); made in house
Sequence (Q9H2K2 873-1166): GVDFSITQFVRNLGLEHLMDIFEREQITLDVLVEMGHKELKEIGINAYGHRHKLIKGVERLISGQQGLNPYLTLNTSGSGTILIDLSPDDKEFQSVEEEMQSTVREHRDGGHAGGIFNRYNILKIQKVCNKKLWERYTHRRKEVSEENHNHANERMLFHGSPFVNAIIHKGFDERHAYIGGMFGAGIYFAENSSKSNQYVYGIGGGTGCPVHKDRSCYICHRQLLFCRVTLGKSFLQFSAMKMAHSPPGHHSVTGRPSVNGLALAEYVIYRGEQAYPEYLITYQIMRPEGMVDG
Test: TNKS2 activity ELISA (autoparsylation assay)
Format: biochemical
Conditions: GST-tagged Tnks-2 (873-1166 aa); read-out: IC50 [M] TNKS2 ELISA
Task for the reader: assign each of the following molecules its reported IC50.
Hi, when you answer, please include the unit after the number. Thanks!

// solved cases for IC50 follow
INSERT INTO results (line_notation, tested_on, observed_property, result) VALUES
  ('COc1ccc(C(=O)C2CCN(C(=O)CCCc3nn4c(C)ccc4c(=O)[nH]3)CC2)cc1C', 'TNKS2 (Homo sapiens, UniProt Q9H2K2)', 'IC50', '1.3e-10 M'),
  ('COc1ccc(C(=O)C2CCN(C(=O)CCCc3nn4c(C)ccc4c(=O)[nH]3)CC2)cn1', 'TNKS2 (Homo sapiens, UniProt Q9H2K2)', 'IC50', '1.9e-10 M'),
  ('Cn1cc(C(=O)C2CCN(C(=O)CCCc3nc4c(c(=O)[nH]3)COCC4)CC2)cn1', 'TNKS2 (Homo sapiens, UniProt Q9H2K2)', 'IC50', '3.1e-09 M'),
  ('Cn1ncc2c(=O)[nH]c(CCCC(=O)N3CCC(C(=O)c4ccc(F)c(F)c4)CC3)nc21', 'TNKS2 (Homo sapiens, UniProt Q9H2K2)', 'IC50', '3.2e-10 M');

Batch lookup, IC50 per entry.
1. CCn1cc(C(=O)C2CCN(C(=O)CCCc3nn4cccc4c(=O)[nH]3)CC2)cn1
2. Cc1nc(CCCC(=O)N2CCC(C(=O)c3cnn(C)c3)CC2)[nH]c(=O)c1C
3. CC(C)n1cc(C(=O)C2CCN(C(=O)CCCc3nc4c(c(=O)[nH]3)COCC4)CC2)cn1
4. CC(C)(O)c1ccc(C(=O)C2CCN(C(=O)CCCc3nn4cc(F)cc4c(=O)[nH]3)CC2)cc1
5. Cc1cc2c(=O)[nH]c(CCCC(=O)N3CCC(C(=O)c4cnn(C(C)C)c4)CC3)cn2n1
6. Cn1cc(C(=O)C2CCN(C(=O)CCCc3cn4cc(F)cc4c(=O)[nH]3)CC2)cn1
7. O=C(c1ccc(Cl)cc1)C1CCN(C(=O)CCCc2nn3cccc3c(=O)[nH]2)CC1

1. 1.3e-09 M
2. 7.1e-09 M
3. 2.3e-09 M
4. 4.8e-09 M
5. 2.7e-09 M
6. 1.6e-10 M
7. 3e-10 M

====

Task for the reader: assign each of the following molecules its reported log10 IC50.
Target: TNKS1 (Homo sapiens, UniProt O95271)
Construct: GST-tagged Tnks-1 (1023-1327 aa, prepared in-house); made in house
Sequence (O95271 1023-1327): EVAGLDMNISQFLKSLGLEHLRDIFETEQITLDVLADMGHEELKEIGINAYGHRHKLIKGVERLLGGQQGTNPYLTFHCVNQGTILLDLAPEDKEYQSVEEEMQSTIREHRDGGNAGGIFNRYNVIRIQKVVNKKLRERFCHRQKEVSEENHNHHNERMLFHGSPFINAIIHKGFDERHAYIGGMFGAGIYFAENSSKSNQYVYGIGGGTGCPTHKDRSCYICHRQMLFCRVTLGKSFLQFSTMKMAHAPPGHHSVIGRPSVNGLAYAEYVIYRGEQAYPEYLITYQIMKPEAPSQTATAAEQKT
Test: TNKS1 activity ELISA (autoparsylation assay)
Format: biochemical
Conditions: GST-tagged Tnks-1 (1023-1327 aa)
Lab note - IC50 converted to log10 from values in nM.

INSERT INTO results (molecule, observed_property, readout_number) VALUES
  ('O=C(c1ccc(F)c(F)c1)C1CCN(C(=O)CCCc2nc3c(c(=O)[nH]2)COCC3)CC1 [Compound C262]', 'log10 IC50', 0.85),
  ('CCc1cc(=O)[nH]c(CCCC(=O)N2CCC(C(=O)c3ccc(OC)cc3)CC2)n1 [Compound C251]', 'log10 IC50', 0.89),
  ('N#Cc1ccc(OC2CCN(C(=O)CCCc3nn4cc(F)cc4c(=O)[nH]3)CC2)cc1 [Compound C174]', 'log10 IC50', 1.81),
  ('COc1ccc(C(=O)C2CCN(C(=O)CCCc3cn4cccc4c(=O)[nH]3)CC2)cn1 [Compound C15]', 'log10 IC50', -0.64);

Batch lookup, log10 IC50 per entry.
1. COc1ccc(C(=O)C2CCN(C(=O)CCCc3nn4cc(C)cc4c(=O)[nH]3)CC2)cc1C [Compound C165]
2. O=C(CCCc1cn2cccc2c(=O)[nH]1)N1CCC(c2nnc(-c3ccccc3)o2)CC1 [Compound C6]
3. Cc1cc2c(=O)[nH]c(CCCC(=O)N3CCC(C(=O)c4cnn(C(C)C)c4)CC3)cn2n1 [Compound C217]
4. Cn1cc(C(=O)C2CCN(C(=O)CCCc3nc4c(c(=O)[nH]3)CCCC4)CC2)cn1 [Compound C230]
5. Cc1csc2c(=O)[nH]c(CCCC(=O)N3CCC(c4cnc(N)c(-c5ncccn5)c4)CC3)nc12 [Compound C128]
6. Cn1ncc2c(=O)[nH]c(CCCC(=O)N3CCC(c4cnc(N)c(-c5ncccn5)c4)CC3)nc21 [Compound C45]

[-0.66, 0.28, 0.30, 0.71, -0.96, -0.59]

Batch lookup, log10 IC50 per entry.
1. COc1ccc(C(=O)C2CCN(C(=O)CCCc3cn4c(C)ncc4c(=O)[nH]3)CC2)cn1 [Compound C99]
2. Cc1cc2c(=O)[nH]c(CCCC(=O)N3CCC(c4cnc(N)c(-c5ncccn5)c4)CC3)nn2c1 [Compound C161]
3. Cn1cc(C(=O)C2CCN(C(=O)CCCc3nc4c(ccn4C)c(=O)[nH]3)CC2)cn1 [Compound C190]
4. COc1ccc(C(=O)C2CCN(C(=O)CCCc3noc4ccccc34)CC2)cc1 [Compound C258]

[-0.43, -0.21, -0.15, 2.18]

Where these numbers come from: patent US9809598B2
